species: Rattus norvegicus; assay: Open TG-GATES - Regimen: Single; type: toxicity, organism-based, Sprague-Dawley; set-up: regimen Single, gender Male, age 6 weeks; details: in vivo, po, 0 mg/kg, 3 h, tissue Kidney, route gavage, dose level Control
List of KIDNEY_R values.
quantity measured: KIDNEY_R

compound	meas value
CN1C(=O)CN=C(c2ccccc2)c2cc(Cl)ccc21	1 g
Cc1ccc(C)c(OCCCC(C)(C)C(=O)O)c1	0.9 g
CCOc1ccc(NC(=O)CC(C)O)cc1 (stereo not drawn)	0.9 g
CN(C)CCN(Cc1cccs1)c1ccccn1	0.9 g
CCOC(=O)CCC(=O)O[C@H]1[C@H](O[C@@H]2[C@@H](C)[C@H](O[C@H]3C[C@@](C)(OC)[C@@H](O)[C@H](C)O3)[C@@H](C)C(=O)O[C@H](CC)[C@@](C)(O)[C@H](O)[C@@H](C)C(=O)[C@H](C)C[C@@]2(C)O)O[C@H](C)C[C@@H]1N(C)C [ERYTHROMYCIN ETHYLSUCCINATE]	0.9 g
COc1cc2c(c(OC)c1OC)-c1ccc(OC)c(=O)cc1[C@@H](NC(C)=O)CC2	1.1 g
NNC(=O)c1ccncc1	0.9 g
CC(C)OC(=O)C(C)(C)Oc1ccc(C(=O)c2ccc(Cl)cc2)cc1 [FENOFIBRATE]	0.8 g

###

List of DBIL values.
species on record: Rattus norvegicus; test: Open TG-GATES - Regimen: Single; type: toxicity, organism-based, Sprague-Dawley; design: regimen Single, gender Male, age 6 weeks; conditions: in vivo, po, 300 mg/kg, 3 h, tissue Plasma, route gavage, dose level Middle

compound	DBIL, mg/dL
COc1ccc2[nH]c([S+]([O-])Cc3ncc(C)c(OC)c3C)nc2c1 (centres undefined)	0.064
NC(N)=Nc1nc(CSCCC(N)=NS(N)(=O)=O)cs1	0.07
CCOC(=O)CCC(=O)O[C@H]1[C@H](O[C@@H]2[C@@H](C)[C@H](O[C@H]3C[C@@](C)(OC)[C@@H](O)[C@H](C)O3)[C@@H](C)C(=O)O[C@H](CC)[C@@](C)(O)[C@H](O)[C@@H](C)C(=O)[C@H](C)C[C@@]2(C)O)O[C@H](C)C[C@@H]1N(C)C [ERYTHROMYCIN ETHYLSUCCINATE]	0.004
COC1=CC(=O)C[C@@H](C)[C@]12Oc1c(Cl)c(OC)cc(OC)c1C2=O	0.2

###

species: Rattus norvegicus; assay: Open TG-GATES - Regimen: Single; type: toxicity, organism-based, Sprague-Dawley; set-up: regimen Single, gender Male, age 6 weeks; conditions: in vivo, po, 30 mg/kg, 3 h, tissue Plasma, route gavage, dose level Middle
quantity measured: TP

> print(dat)
                                   compound  meas.value
1                CN(C)CCN(Cc1cccs1)c1ccccn1    5.4 g/dL
2  CN(C)CCCN1c2ccccc2CCc2ccccc21 [IMIPRAMINE]    5.6 g/dL
3  CC1=C(/C=C/C(C)=C/C=C/C(C)=C/CO)C(C)(C)CCC1 [RETINOL]    5.7 g/dL
4  CN(C)CCCN1c2ccccc2CCc2ccc(Cl)cc21 [CLOMIPRAMINE]    5.2 g/dL

###

organism: Rattus norvegicus; experiment: Open TG-GATES - Regimen: Single; format: toxicity, organism-based, Sprague-Dawley; design: regimen Single, gender Male, age 6 weeks; details: in vivo, po, 1000 mg/kg, 6 h, tissue Plasma, route gavage, dose level High
List of LDH values.

molecule	LDH [IU/L]
NC(N)=Nc1nc(CSCCC(N)=NS(N)(=O)=O)cs1	204.2
COC1=CC(=O)C[C@@H](C)[C@]12Oc1c(Cl)c(OC)cc(OC)c1C2=O	144.2
CCOC(=O)CCC(=O)O[C@H]1[C@H](O[C@@H]2[C@@H](C)[C@H](O[C@H]3C[C@@](C)(OC)[C@@H](O)[C@H](C)O3)[C@@H](C)C(=O)O[C@H](CC)[C@@](C)(O)[C@H](O)[C@@H](C)C(=O)[C@H](C)C[C@@]2(C)O)O[C@H](C)C[C@@H]1N(C)C [ERYTHROMYCIN ETHYLSUCCINATE]	180
COc1ccc2[nH]c([S+]([O-])Cc3ncc(C)c(OC)c3C)nc2c1 (centres undefined)	178.8

###

species on record: Rattus norvegicus; assay: Open TG-GATES - Regimen: Daily Repeat; type: toxicity, organism-based, Sprague-Dawley; set-up: regimen Daily Repeat, gender Male, age 6 weeks; settings: in vivo, po, 10 mg/kg, […], tissue Blood, route gavage, dose level Low, time 7 day
List of Plat values.
quantity measured: Plat (x10_4/uL)

> print(dat)
                                   compound  meas.value
1  CN(C)CCCN1c2ccccc2CCc2ccccc21 [IMIPRAMINE]       120.1
2  CC(C)OC(=O)C(C)(C)Oc1ccc(C(=O)c2ccc(Cl)cc2)cc1 [FENOFIBRATE]       136.5
3                CN(C)CCN(Cc1cccs1)c1ccccn1       120.4
4  CC1=C(/C=C/C(C)=C/C=C/C(C)=C/CO)C(C)(C)CCC1 [RETINOL]       111.8

###

organism: Rattus norvegicus; test: Open TG-GATES - Regimen: Daily Repeat; format: toxicity, organism-based, Sprague-Dawley; parameters: regimen Daily Repeat, gender Male, age 6 weeks; details: in vivo, po, 1000 mg/kg, […], tissue Kidney, route gavage, dose level High, time 14 day
quantity measured: KIDNEY_L (g)

compound	quantity measured	meas value
COc1ccc2[nH]c([S+]([O-])Cc3ncc(C)c(OC)c3C)nc2c1 (stereo unspecified)	KIDNEY_L	1.2
COC1=CC(=O)C[C@@H](C)[C@]12Oc1c(Cl)c(OC)cc(OC)c1C2=O	KIDNEY_L	1.3
CCOc1ccc(NC(=O)CC(C)O)cc1 (stereo unspecified)	KIDNEY_L	1.3
CC(C)OC(=O)C(C)(C)Oc1ccc(C(=O)c2ccc(Cl)cc2)cc1 [FENOFIBRATE]	KIDNEY_L	1.2
CCOC(=O)CCC(=O)O[C@H]1[C@H](O[C@@H]2[C@@H](C)[C@H](O[C@H]3C[C@@](C)(OC)[C@@H](O)[C@H](C)O3)[C@@H](C)C(=O)O[C@H](CC)[C@@](C)(O)[C@H](O)[C@@H](C)C(=O)[C@H](C)C[C@@]2(C)O)O[C@H](C)C[C@@H]1N(C)C [ERYTHROMYCIN ETHYLSUCCINATE]	KIDNEY_L	1.2
NC(N)=Nc1nc(CSCCC(N)=NS(N)(=O)=O)cs1	KIDNEY_L	1.3

###

List of Bas values.
organism: Rattus norvegicus; test: Open TG-GATES - Regimen: Daily Repeat; assay type: toxicity, organism-based, Sprague-Dawley; parameters: regimen Daily Repeat, gender Male, age 6 weeks; details: in vivo, po, 0 mg/kg, […], tissue Blood, route gavage, dose level Control, time 14 day
quantity measured: Bas (%)

> print(dat)
                                    molecule  meas.value
 1             CN(C)CCCN1c2ccccc2CCc2ccccc21         0.4
 2  CCOc1ccc(NC(=O)CC(C)O)cc1 (stereo not given)         0.2
 3  COc1ccc2[nH]c([S+]([O-])Cc3ncc(C)c(OC)c3C)nc2c1 (stereo not given)           0
 4  CC1=C(/C=C/C(C)=C/C=C/C(C)=C/CO)C(C)(C)CCC1           0
 5                           NNC(=O)c1ccncc1           0
 6  CC(C)OC(=O)C(C)(C)Oc1ccc(C(=O)c2ccc(Cl)cc2)cc1 [FENOFIBRATE]           0
 7       CN1C(=O)CN=C(c2ccccc2)c2cc(Cl)ccc21           0
 8  COC1=CC(=O)C[C@@H](C)[C@]12Oc1c(Cl)c(OC)cc(OC)c1C2=O           0
 9      NC(N)=Nc1nc(CSCCC(N)=NS(N)(=O)=O)cs1           0
10  O=C(CCCN1CCC(O)(c2ccc(Cl)cc2)CC1)c1ccc(F)cc1           0

###

organism: Rattus norvegicus; test: Open TG-GATES - Regimen: Daily Repeat; assay type: toxicity, organism-based, Sprague-Dawley; design: regimen Daily Repeat, gender Male, age 6 weeks; conditions: in vivo, po, 1000 mg/kg, […], tissue Plasma, route gavage, dose level High, time 14 day
// assign condition met if TG falls strictly below 70 mg/dL, else condition not met (ties count as condition not met)

molecule	category
NC(N)=Nc1nc(CSCCC(N)=NS(N)(=O)=O)cs1	condition met
CCOc1ccc(NC(=O)CC(C)O)cc1 (stereo unspecified)	condition not met
COc1ccc2[nH]c([S+]([O-])Cc3ncc(C)c(OC)c3C)nc2c1 (stereo unspecified)	condition not met
COC1=CC(=O)C[C@@H](C)[C@]12Oc1c(Cl)c(OC)cc(OC)c1C2=O	condition met
CCOC(=O)CCC(=O)O[C@H]1[C@H](O[C@@H]2[C@@H](C)[C@H](O[C@H]3C[C@@](C)(OC)[C@@H](O)[C@H](C)O3)[C@@H](C)C(=O)O[C@H](CC)[C@@](C)(O)[C@H](O)[C@@H](C)C(=O)[C@H](C)C[C@@]2(C)O)O[C@H](C)C[C@@H]1N(C)C [ERYTHROMYCIN ETHYLSUCCINATE]	condition not met
CC(C)OC(=O)C(C)(C)Oc1ccc(C(=O)c2ccc(Cl)cc2)cc1 [FENOFIBRATE]	condition met

Taken from ChEMBL document CHEMBL3885861.
